Molecular target: EGFR (d746-750 C797S) (Homo sapiens, UniProt P00533, C797S/DEL746-750)
Construct: purchased signalchem
Sequence (P00533 with tags, fused parts or gaps DEL746-750/C797S limits assumed): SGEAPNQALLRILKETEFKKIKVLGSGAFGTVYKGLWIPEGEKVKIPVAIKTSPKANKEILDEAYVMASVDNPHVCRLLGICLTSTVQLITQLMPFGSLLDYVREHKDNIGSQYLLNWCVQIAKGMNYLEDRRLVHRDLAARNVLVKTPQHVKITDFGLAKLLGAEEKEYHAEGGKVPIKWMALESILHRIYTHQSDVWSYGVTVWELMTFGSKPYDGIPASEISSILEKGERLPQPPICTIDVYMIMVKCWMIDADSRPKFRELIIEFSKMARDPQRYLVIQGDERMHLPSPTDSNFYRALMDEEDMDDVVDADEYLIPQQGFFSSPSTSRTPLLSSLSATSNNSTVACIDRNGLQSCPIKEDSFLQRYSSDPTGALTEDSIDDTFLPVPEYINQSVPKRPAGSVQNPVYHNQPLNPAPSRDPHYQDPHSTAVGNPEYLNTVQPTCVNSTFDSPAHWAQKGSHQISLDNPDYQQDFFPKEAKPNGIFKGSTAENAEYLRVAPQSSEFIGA
Experiment: Inhibition of EGFR (d746-750 C797S) biochemical enzymatic activity (HTRF)
Settings: EGFR (d746-750 C797S), 1 mM ATP, 1 h at room temperature, read-out: IC50 @Del19-C797S
Measured Property: IC50

# example entries with known answers
[[record]]
compound = "Cc1cc2cc(n1)-c1cnn(C)c1OCCN1CC3CCC(C3)(C1)n1c(nc3ccc(N4CC[C@@H](N(C)C)C4)cc31)NC2=O (single isomer, unassigned) [Example B42A]"
reported = "> 5 µM"

[[record]]
compound = "Cc1cc2cc(n1)-c1cnn(C)c1OCCCCCn1c(nc3ccn(C)c(=O)c31)NC2=O"
reported = "> 5 µM"


Please turn your attention to the following entry.
Data request: Request the reported IC50 associated with Cc1cc2cc(n1)-c1cnn(C)c1OCCN1CC3CCC(C3)(C1)n1c(nc3ccc(N4CCC5(CCN(C)CC5)C4)cc31)NC2=O (single isomer, unassigned) [Example B51A]
Data returned: > 5 µM
